As shown below, each of these molecules has a reported inhibition at 1 µM value.
Molecular target: 17β-hydroxysteroid dehydrogenase type 2 (17β-HSD type 2) (Homo sapiens)
Construct: expressed in transfected cells; host or cells: MCF-7
Sequence (P37059 whole entry): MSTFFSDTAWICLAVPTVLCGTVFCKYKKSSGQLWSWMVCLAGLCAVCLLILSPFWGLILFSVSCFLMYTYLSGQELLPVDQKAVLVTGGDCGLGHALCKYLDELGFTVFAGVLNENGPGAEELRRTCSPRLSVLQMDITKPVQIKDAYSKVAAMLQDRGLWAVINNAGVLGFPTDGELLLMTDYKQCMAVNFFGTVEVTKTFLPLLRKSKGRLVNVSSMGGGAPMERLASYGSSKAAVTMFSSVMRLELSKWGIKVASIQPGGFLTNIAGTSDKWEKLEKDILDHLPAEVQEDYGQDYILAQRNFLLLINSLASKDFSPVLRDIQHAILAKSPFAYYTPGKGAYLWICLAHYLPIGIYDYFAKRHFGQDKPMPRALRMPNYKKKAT
Assay: Inhibition of 17β-HSD type 2 in MCF-7 cells stably expressing the isoenzyme (tritium labeled estradiol conversion, HPLC)
Assay type: cell-based
Settings: MCF7; 1 μM test compound; MCF-7 cells expressing 17β-HSD type 2; 2 nM tritium labeled estradiol; read-out: % Inhibition HSD2 1 μM
ENDPOINT LABEL: inhibition at 1 µM (%)

[[record]]
molecule = "CCCc1nc2sc3c(c2c(=O)n1Cc1ccc(Br)o1)CCC(Br)C3=O (stereo not drawn) [No. 103]"
endpoint_label = "inhibition at 1 µM"
unit_abbrev = "%"
readout_value = 30.7

[[record]]
molecule = "COc1cc(-c2nc3sc4c(c3c(=O)n2Cc2ccccc2)C(Br)CCC4=O)cc(OC)c1OC (stereo not drawn) [No. 137]"
endpoint_label = "inhibition at 1 µM"
unit_abbrev = "%"
readout_value = 28.1

[[record]]
molecule = "O=C1CCCc2c1sc1nc(-c3ccc(Br)s3)n(Cc3ccccc3)c(=O)c21 [No. 64]"
endpoint_label = "inhibition at 1 µM"
unit_abbrev = "%"
readout_value = 15.4

